Target or system PCB-495 (human epithelioid sarcoma primary culture): recorded IC50 cell viability listed per item.

- CC(C)(C)Cn1c(N)nc2ccc(-c3[nH]c(C(C)(C)C)nc3-c3ccc(F)cc3)nc21: > 10 µM

Quick request: IC50 cell viability for each listed item, please.
1. Nc1nc2c(ncn2COC(CO)CO)c(=O)[nH]1
2. Cc1ccc(-c2cc(C(F)(F)F)nn2-c2ccc(S(N)(=O)=O)cc2)cc1
3. CC(C)n1nc(-c2ccc3oc(N)nc3c2)c2c(N)ncnc21
4. Cc1nc(Nc2ncc(C(=O)Nc3c(C)cccc3Cl)s2)cc(N2CCN(CCO)CC2)n1
5. CCc1cnn2c(NCc3ccc[n+]([O-])c3)cc(N3CCCC[C@H]3CCO)nc12

Given back:
["> 10 µM", "> 10 µM", "0.14 µM", "> 10 µM", "0.01 µM"]
